Assay: Cyclic voltammetry (redox potentials on a GCE)
Type: physicochemical
Conditions: pH 6.0; GCE (d = 2 mm)
Description: Reduction and oxidation potentials were experimentally performed by cyclic voltammetry (CV) at biological pH 7.4, as previously described. All samples were run on a CH Instruments 600E Potentiostat in a one-compartment cell equipped with a three-electrode system arrangement. The three-electrode system included a saturated calomel electrode as the reference electrode, a platinum wire as the auxiliary electrode, and a glassy carbon electrode (GCE, d = 2 mm) as the working electrode. […]
QUANTITY KIND: ΔE p (mV)
Answer format: numeric, mV implied, no suffix.

Some solved entries appear below for comparison.
- MOLECULE: "O=C(O)CCc1ccc(O)c(O)c1 [DHHCA (3), 3,4-dihydroxyhydrocinnamic acid]"
  ΔE p, mV: 379
- MOLECULE: "NCCc1ccc(O)c(O)c1 [Dopamine (DA, 2), dopamine]"
  ΔE p, mV: 270
- MOLECULE: "N#Cc1cc(O)c(O)cc1CCC(=O)O [6-CyanoDHHCA (5)]"
  ΔE p, mV: 98
- MOLECULE: "N[C@@H](Cc1ccc(O)c(O)c1)C(=O)O [L-DOPA (1), L-3,4-dihydroxyphenylalanine]"
  ΔE p, mV: 261

Now examine the next entry.
The molecule listed as O=C(O)CCc1cc(O)c(O)cc1Br [6-BromoDHHCA (4)] shows ΔE p equal to 113
